- protocolDescription: Plasma pharmacokinetics of AP after oral administration in mice
- Format: in vivo
- experimentalConditions: mouse, plasma, po, 100 mg/kg, mice, AP 100 mg/kg oral gavage, Control group (Table 4), mean ± SD, n = 12
propertyName: AUC(0-inf) (ng·h/mL)
Your answer is read as ng·h/mL, so omit the unit and give the number.

AUC(0-inf) recorded for this compound, C=C1CC[C@@H]2[C@](C)(CO)[C@H](O)CC[C@@]2(C)[C@@H]1C/C=C1/C(=O)OC[C@H]1O [AP, Andrographolide] , is 1030

* * *

- protocolDescription: Plasma pharmacokinetics of AP after oral administration in mice
- Assay type: in vivo
- experimentalConditions: mouse, plasma, po, 100 mg/kg, mice, AP 100 mg/kg oral gavage, Control group (Table 3), mean ± SD, n = 10
propertyName: Cmax (ng/mL)
Your answer is read as ng/mL, so omit the unit and give the number.

Cmax recorded for this compound, C=C1CC[C@@H]2[C@](C)(CO)[C@H](O)CC[C@@]2(C)[C@@H]1C/C=C1/C(=O)OC[C@H]1O [AP, Andrographolide] , is 500

* * *

- protocolDescription: Plasma pharmacokinetics of AP after oral administration in mice
- Assay type: in vivo
- experimentalConditions: mouse, plasma, po, 100 mg/kg, mice, AP 100 mg/kg oral gavage, D. piger group (D. piger suspension by gavage 2 weeks before), mean ± SD, n = 12
propertyName: AUC(0-t)
Reply with the number and its unit after it.

AUC(0-t) recorded for this compound, C=C1CC[C@@H]2[C@](C)(CO)[C@H](O)CC[C@@]2(C)[C@@H]1C/C=C1/C(=O)OC[C@H]1O [AP, Andrographolide] , is 374 ng·h/mL

* * *

- protocolDescription: Plasma pharmacokinetics of AP after oral administration in rats
- Type: in vivo
- experimentalConditions: Sprague-Dawley, rat, plasma, po, 120 mg/kg, rats, AP 120 mg/kg oral gavage, Control group (Table 1), mean ± SD, n = 4
propertyName: AUC(0-inf)

AUC(0-inf) recorded for this molecule, C=C1CC[C@@H]2[C@](C)(CO)[C@H](O)CC[C@@]2(C)[C@@H]1C/C=C1/C(=O)OC[C@H]1O [AP, Andrographolide] , is 3000 ng·h/mL

* * *

- protocolDescription: Plasma pharmacokinetics of AP after oral administration in mice
- Type: in vivo
- experimentalConditions: mouse, plasma, po, 100 mg/kg, mice, AP 100 mg/kg oral gavage, SO4^2- group (Na2SO4 200 mg/kg p.o. 1 week before), mean ± SD, n = 10
propertyName: AUC(0-inf) (ng·h/mL)
Your answer is read as ng·h/mL, so omit the unit and give the number.

AUC(0-inf) recorded for this molecule, C=C1CC[C@@H]2[C@](C)(CO)[C@H](O)CC[C@@]2(C)[C@@H]1C/C=C1/C(=O)OC[C@H]1O [AP, Andrographolide] , is 227

* * *

- protocolDescription: Plasma pharmacokinetics of AP after oral administration in mice
- Assay type: in vivo
- experimentalConditions: mouse, plasma, po, 100 mg/kg, mice, AP 100 mg/kg oral gavage, Inhibitor group (bromocriptine mesylate 20 mg/kg p.o. 1 week before), mean ± SD, n = 10
propertyName: half-life (h)
Your answer is read as h, so omit the unit and give the number.

half-life recorded for this compound, C=C1CC[C@@H]2[C@](C)(CO)[C@H](O)CC[C@@]2(C)[C@@H]1C/C=C1/C(=O)OC[C@H]1O [AP, Andrographolide] , is 2.43

Each recorded value in this set is attributed to paper PMC11404609.
